# assay procedure: Plasmodium falciparum growth inhibition, primary screen, strain 3D7, DAPI fluorescence, 100 nL (AID 1184);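 further: parasites grown inside human red blood cells in medium with human serum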
# protocol conditions: P. falciparum 3D7 growth, 3 d, higher = more signal
Quick list: z-score per entry.
Please respond with just the number, no unit label.

[Q] Any idea what its z-score is? The molecule is [N-]=[N+]=NCc1ccccc1C[C@]1(C(=O)NCc2ccccc2)N=C(c2ccc(OCCCO)cc2)O[C@H]1c1ccccc1N=[N+]=[N-]
[A] -2.52

[Q] Any idea what its z-score is? The molecule is CC(C)=CCCC(C)=CCON=C1[C@H]2CCn3c(=O)n(Cc4cc5c(cc4Cl)OCO5)c(=O)n3[C@H]2[C@H](O)[C@@H]2O[C@H]12
[A] -1.17

[Q] Any idea what its z-score is? The molecule is COC(=O)[C@H](C)NC(=O)CCC1CC(OC(=O)NCCc2ccc(F)cc2)CC2(CCCC(COC(=O)NCC(c3ccccc3)c3ccccc3)O2)O1 (some centres undefined)
[A] -1.32

[Q] Any idea what its z-score is? The molecule is CCCCCN1CC=CC23O[C@@H]4C=CCOC(=O)[C@@H]4[C@H]2C(=O)N(C(CO)C(C)C)[C@@H]3C1=O (some centres undefined)
[A] -0.303
